measured_property: melting point (°C)

>>> print(df.to_string())
                                   compound  measured_property  readout_number
0  CN(C)c1ncnc2c1c1c3cccnc3ccc1n2[C@@H]1O[C@H](CO)[C@@H](O)[C@H]1O [14d]      melting point             240

A = Cc1ncnc2c1c1c3cccnc3ccc1n2[C@@H]1O[C@H](CO)[C@@H](O)[C@H]1O [14c]
B = OC[C@H]1O[C@@H](n2c3ccc4ncccc4c3c3c(-c4cc5ccccc5o4)ncnc32)[C@H](O)[C@@H]1O [14b]
(Q) Please indicate which item has the smaller measured melting point: A versus B Indicate your choice by writing its label.
(A) B
